The measured values listed here are drawn from paper PMC9352680.

- target: T1, PUF4 RNA-binding domain (Saccharomyces cerevisiae, UniProt P25339 537-888)
- T1 sequence: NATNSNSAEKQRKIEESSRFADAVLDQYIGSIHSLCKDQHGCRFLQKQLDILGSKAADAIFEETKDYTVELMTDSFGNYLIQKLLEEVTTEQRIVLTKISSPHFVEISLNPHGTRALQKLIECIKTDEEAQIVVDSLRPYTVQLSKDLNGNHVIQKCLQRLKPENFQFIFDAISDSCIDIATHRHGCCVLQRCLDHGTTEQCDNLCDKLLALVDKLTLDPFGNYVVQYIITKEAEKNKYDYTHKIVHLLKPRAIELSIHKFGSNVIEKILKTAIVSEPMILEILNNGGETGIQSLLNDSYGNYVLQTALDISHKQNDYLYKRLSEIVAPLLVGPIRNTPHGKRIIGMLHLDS
- assay procedure: Mg; RNA-MaP; 20 mM Na-HEPES pH 7.4, 30 mM KOAc, 0.75 mM MgCl2, 0.1% Tween-20, 5% glycerol, 0.1 mg/mL BSA, 2 mM DTT; 25 C; 0.0125-409.6 nM protein
- condition notes: tags: N-His6-TEV cleaved; C-SNAP kept, Cy3B-labelled; label: tethered on chip by stalled RNA polymerase
# note: boundary value 60 nM maps to Not satisfied; Kd below it maps to Satisfied

Answered examples (2):
>  <binder>
Ie_S4_P4E.1_K4.1_C4.1_H4.1_A4.1_F4.1_[+9TTC]_T4.1 (ssRNA) RNA: UUUGACAACUGAUCGUUCUUUCUUGUAUAUUAUUCUUCUUUCUCGAUCAGUUGUCUUU

>  <class assignment>
Satisfied

$$$$
>  <binder>
Ic_S4_P5E.1_K5.1_C5.1_H5.1_A5.1_[T6G]_[A7T]_F5.1_[T8A]_[T9A]_T5.1 (ssRNA) RNA: UUUGACAACUGAUCGUUCUUUCUUGUAUGUAAAUUCUUUCUCGAUCAGUUGUCUUU

>  <class assignment>
Satisfied

$$$$

[Q] Regarding UCUCUUUGUACUGGCUUCUCUU (ssRNA) [Ic_S1_P5E.1_K5.1_C5.1_H5.1_A5.1_[T5C]_[A7G]_F5.1_[T8G]_[T9C]_[A10T]_T5.1] , kindly confirm whether its Kd is beneath 60 nM.
[A] Not satisfied

[Q] Bench note: check whether Id_ii_S2_P3E.4_K3.3_C3.2_[C-2G]_H3.3_A3.1_F3.1_T3.2 (ssRNA) RNA: UUUGAUUAAUAUGAUAUCGUUCUUUCUGUACACUAUAUAUUCUUUCUCGAUAUCAUAUUAAUCUUU shows Kd below 60 nM
[A] Satisfied

[Q] Strictly below 60 nM in Kd? Id_ii_S2_P4E.2_K4.1_C4.2_[T-1C]_H4.1_A4.1_F4.1_T4.2_[G10T]_[T11A] (ssRNA) RNA: UUUGAUUAAUAUGAUAUCGUUCUUUCUCCUGUAUAUUAUAUUCUUUCUCGAUAUCAUAUUAAUCUUU
[A] Satisfied
